- Target Or Test System: SNX27, Q96L92
- Experiment Description: holdup assay
- Design: key: below the threshold = too weak to quantify, mostly under pKd 3.1 to 4
- Run Parameters: plain residues with an end cap or a label only (N-terminal biotin on a linker: ado-ado)
Endpoint Name: pKd

Sample answers from the record:
[
  {
    "Binder": "MLPANYVEAI [NEB, P20929]",
    "Result": "below the threshold"
  },
  {
    "Binder": "QQGLLPHSSC [TYRO3, Q06418]",
    "Result": "below the threshold"
  },
  {
    "Binder": "PSDSVGKDVF [EGLN1, Q9GZT9]",
    "Result": "below the threshold"
  },
  {
    "Binder": "GDSSRKEYFI [GYPC, P04921]",
    "Result": "below the threshold"
  },
  {
    "Binder": "DFKHTKSFII [JAM2, P57087]",
    "Result": "below the threshold"
  }
]

In plain terms, MQILSKPEFI [NPSR1, Q6W5P4] has a documented pKd of below the threshold

In plain terms, RSPVATATSC [DUSP5, Q16690] has a documented pKd of below the threshold

In plain terms, LVEEEEPMNL [HDAC7, Q8WUI4] has a documented pKd of below the threshold

In plain terms, IQISELETNV [SLC1A7, O00341] has a documented pKd of 5.65

In plain terms, TFSRRPKTRV [CD226, Q15762] has a documented pKd of 3.88

In plain terms, DAAHHDESNC [FMNL3, Q8IVF7] has a documented pKd of 4.2

In plain terms, GSQSQVETEA [FKBP4, Q02790] has a documented pKd of below the threshold

Values from paper PMC9482650
